Source listed as paper PMC10784678.

# target under test: DPP-IV (Homo sapiens, UniProt P27487)
# Sequence (P27487 whole entry): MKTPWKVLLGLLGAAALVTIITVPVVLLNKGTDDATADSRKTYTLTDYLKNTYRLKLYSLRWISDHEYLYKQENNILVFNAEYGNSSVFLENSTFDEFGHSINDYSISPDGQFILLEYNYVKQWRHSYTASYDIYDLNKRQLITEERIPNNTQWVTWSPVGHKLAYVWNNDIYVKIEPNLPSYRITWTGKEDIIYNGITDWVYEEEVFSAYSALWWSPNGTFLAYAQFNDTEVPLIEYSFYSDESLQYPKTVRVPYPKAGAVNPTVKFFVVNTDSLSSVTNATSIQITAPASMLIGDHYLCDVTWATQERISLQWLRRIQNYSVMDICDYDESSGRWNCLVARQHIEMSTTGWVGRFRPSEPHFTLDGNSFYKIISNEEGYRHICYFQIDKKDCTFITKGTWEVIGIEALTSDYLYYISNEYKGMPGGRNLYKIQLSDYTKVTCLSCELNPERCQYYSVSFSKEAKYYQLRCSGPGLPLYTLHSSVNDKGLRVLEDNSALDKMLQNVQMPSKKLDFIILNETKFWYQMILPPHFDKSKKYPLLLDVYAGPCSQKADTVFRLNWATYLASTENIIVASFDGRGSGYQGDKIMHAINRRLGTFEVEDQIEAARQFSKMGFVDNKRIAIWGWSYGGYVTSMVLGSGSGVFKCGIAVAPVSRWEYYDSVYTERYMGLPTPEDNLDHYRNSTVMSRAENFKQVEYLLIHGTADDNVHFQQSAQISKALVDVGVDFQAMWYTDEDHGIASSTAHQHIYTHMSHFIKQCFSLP
# experiment summary: biochemical
# setup conditions: read-out: IC50 DPP-Ⅳ; phenolic standards
pIC50: −log10 of the molar value.
property measured: pIC50

1) Oc1cc(O)c2c(c1)O[C@H](c1ccc(O)c(O)c1)[C@@H](O)C2 [(+) - Catechin] : 3.88
2) COC(=O)[C@]1(O)C[C@@H](O)[C@@H](O)[C@H](OC(=O)/C=C/c2ccc(O)c(O)c2)C1 : 3.72

----------
# target under test: DPP-IV (Homo sapiens, UniProt P27487)
# experiment summary: biochemical
pIC50: −log10 of the molar value.
// label = label 1 if pIC50 is not less than 4, otherwise label 0

1) Oc1cc(O)c2c(c1)O[C@H](c1ccc(O)c(O)c1)[C@H](O)[C@H]2c1c(O)cc(O)c2c1O[C@H](c1ccc(O)c(O)c1)[C@@H](O)C2 [Procyanidin B1] : label 0
2) O=C(/C=C/c1ccc(O)c(O)c1)O[C@@H]1C[C@](O)(C(=O)O)C[C@@H](O)[C@H]1O [Chlorogenic acid] : label 1
3) O=C(O)c1ccc(O)c(O)c1 [Protocatechuic acid] : label 0
4) O=C(O)c1ccccc1O [Salicylic acid] : label 0
5) O=C(O)[C@]1(O)C[C@@H](O)[C@@H](O)[C@H](O)C1 [Quinic acid] : label 0
6) O=C(O)/C=C/c1ccc(O)c(O)c1 [Caffeic acid] : label 0
